Assay: NCI Yeast Anticancer Drug Screen. Data for the mlh1 strain (AID 171);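 note: 0% = growth of vehicle-treated control cultures of the same strain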
Details: S. cerevisiae mlh1 strain growth inhibition; at 3.7 µM; stronger effect = higher value
Description: Growth inhibition of yeast strains with defined genetic alterations is measured as a screen for potential anti-cancer activity. Selected strains with alterations in DNA damage repair or cell cycle control were exposed to compounds and growth inhibition was measured relative to vehicle treated controls. The strain used in this assay is mlh1
The panel holds about 79,000 compounds, 15% with a hit somewhere; the sample as a whole holds those more often.
ASSAY READOUT: growth inhibition (%)

• CC(=O)/C=C/c1cccc([N+](=O)[O-])c1 = 1
• CCCCCc1c(CCCC)c(=O)[nH]c2cc(CNCC(OC)OC)ccc12 = 13
• Fc1ccc(Nc2ccc3ccccc3c2)cc1 = 0
• COc1ccc(C(OCC2OC(n3cnc4c(=O)n(Cc5ccccc5[N+](=O)[O-])nnc43)C(O)C2O)(c2ccccc2)c2ccc(OC)cc2)cc1 (stereo unspecified) = -2
• c1cc(-c2sc(-c3ccncc3)c(-c3ccncc3)c2-c2ccncc2)ccn1 = 4
• COC(=O)C(Cc1c[nH]c2ccccc12)N1CN(C)c2ccccc2C1=O (stereo unspecified) = 0
• CCCNCC(=O)O[C@]1(CC)C(=O)OCc2c1cc1n(c2=O)Cc2cc3ccccc3nc2-1 = 7
• CCN(CC)CCNc1ccc2ncn3c4ccc(O)cc4c(=O)c1c23 = -4
• COc1ccc2nc3cccc([N+](=O)[O-])c3c(NCCCCCC(=O)O)c2c1 = 63
• CN1C(=O)C(CC(=O)O)NC1=S (stereo unspecified) = 0
• Cc1ccnc2c(O)cccc12 = 99
